- test.system: UniProt:P35353
- Sequence (P35353 whole entry): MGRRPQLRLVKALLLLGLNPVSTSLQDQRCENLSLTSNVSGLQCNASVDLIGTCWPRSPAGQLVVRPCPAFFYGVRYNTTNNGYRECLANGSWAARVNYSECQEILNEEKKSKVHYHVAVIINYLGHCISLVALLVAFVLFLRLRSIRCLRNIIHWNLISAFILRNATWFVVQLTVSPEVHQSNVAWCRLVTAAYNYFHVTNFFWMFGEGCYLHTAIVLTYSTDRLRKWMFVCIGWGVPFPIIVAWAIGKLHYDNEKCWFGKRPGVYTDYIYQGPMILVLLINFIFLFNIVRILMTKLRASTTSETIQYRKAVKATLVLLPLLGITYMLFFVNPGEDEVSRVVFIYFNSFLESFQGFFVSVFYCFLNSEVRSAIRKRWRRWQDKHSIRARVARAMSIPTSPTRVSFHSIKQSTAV
quantity.measured: IC50 (nM)

Solved entries:
                                   compound  measured
0  CCC(C1CC1)n1nc(C)nc(Nc2cc(OC)c(C#N)cc2C)c1=O (configuration not stated)        13
1  Cc1nc(Nc2c(Cl)cc(C#N)c(Cl)c2Cl)c(=O)n(C(C)C2CC2)n1 (configuration not stated)        10
2  COC[C@@H](C1CC1)n1nc(C)nc(Nc2ccc(OC)nc2C(F)(F)F)c1=O       2.3
3  Cc1cc(C)c(Nc2nc(C)nn(C(C)C3CC3)c2=O)c(C)c1 (configuration not stated)        19

(I) Cc1nc(Nc2c(C)cc(Cl)cc2Cl)c(=O)n(C(C)C2CC2)n1 (configuration not stated)
(II) Cc1nc(Nc2c(Cl)cc(OC(F)F)cc2Cl)c(=O)n([C@@H](C)C2CC2)n1
Short answer wanted: higher IC50, I or II ? # answer = label of selected item
I
(I: 33 nM, II: 7.2 nM)
